Tested on: FCK cells
Recorded conditions: read-out: CC50 FCK; FCK cells

Molecule: NCCCCCCNC(=O)C1NC(=O)C2NC(=O)C(NC(=O)C3NC(=O)C4NC(=O)C(Cc5ccc(c(Cl)c5)Oc5cc3cc(c5O)Oc3ccc(cc3Cl)C2O)NC(=O)C(N)c2ccc(O)c(c2)Oc2cc(O)cc4c2)c2ccc(O)c(c2)-c2c(O)cc(O)cc21 (stereo not drawn)
Rel: >
CC50, µM: 50
//
Molecule: CCCCc1ccc(CN2CCN(Cc3c(O)cc4c(c3O)-c3cc(ccc3O)C3NC(=O)C5NC(=O)C(CC(N)=O)NC(=O)C(NC(=O)C(CC(C)C)NC)C(O)c6ccc(c(Cl)c6)Oc6cc5cc(c6OC5OC(CO)C(O)C(O)C5OC5CC(C)(N)C(O)C(C)O5)Oc5ccc(cc5)C(OC5CC(C)(N)C(O)C(C)O5)C(NC3=O)C(=O)NC4C(=O)NC)CC2)cc1 (stereo not drawn)
Rel: =
CC50, µM: 28
//
Molecule: CN(C)CCCNC(=O)C1NC(=O)C2NC(=O)C(NC(=O)C3NC(=O)C4NC(=O)C(Cc5ccc(c(Cl)c5)Oc5cc3cc(c5O)Oc3ccc(cc3Cl)C2O)NC(=O)C(N)c2ccc(O)c(c2)Oc2cc(O)cc4c2)c2ccc(O)c(c2)-c2c1cc(O)c(CN1CCN(Cc3ccc(-c4ccccc4)cc3)CC1)c2O (stereo not drawn)
Rel: =
CC50, µM: 21

###

System: HEL cells
Recorded conditions: anti-VZV table
Measurement name: MTC (HEL)

Compound: NC1C(=O)NC2Cc3ccc(c(Cl)c3)Oc3cc4cc(c3O)Oc3ccc(cc3Cl)C(O)C3NC(=O)C(NC(=O)C4NC(=O)C(NC2=O)c2cc(O)cc(c2)Oc2cc1ccc2O)c1ccc(O)c(c1)-c1c(O)cc(O)cc1C(C(=O)N1CCN(Cc2ccc(C=Cc4ccccc4)cc2)CC1)NC3=O (stereo not shown)
Test target: HEL cells
Measurement name: MTC (HEL)
Endpoint value: ≧5-20 μM

Compound: CCCCOc1ccc(CNCCOc2c3cc4cc2Oc2ccc(cc2Cl)C(O)C2NC(=O)C(NC(=O)C4NC(=O)C4NC(=O)C(Cc5ccc(c(Cl)c5)O3)NC(=O)C(NCc3ccc(OCCCC)cc3)c3ccc(O)c(c3)Oc3cc(O)cc4c3)c3ccc(O)c(c3)-c3c(O)cc(O)cc3C(C(=O)O)NC2=O)cc1 (stereo not shown)
Test target: HEL cells
Measurement name: MTC (HEL)
Endpoint value: ≧5-20 μM

Compound: CCCCCCCCCCCNC1C(=O)NC2Cc3ccc(c(Cl)c3)Oc3cc4cc(c3O)Oc3ccc(cc3Cl)C(O)C3NC(=O)C(NC(=O)C4NC(=O)C(NC2=O)c2cc(O)cc(c2)Oc2cc1ccc2O)c1ccc(O)c(c1)-c1c(O)cc(O)cc1C(C(=O)NCCCN(C)C)NC3=O (stereo not shown)
Test target: HEL cells
Measurement name: MTC (HEL)
Endpoint value: 20 µM

###

Test system: HIV-2(ROD)
Test details: Inhibition of HIV-2 (ROD)-induced cytopathicity (giant cell formation) in CEM cells
Assay type: cell-based
Recorded conditions: read-out: EC50 HIV-2 (concentration required to inhibit HIV-induced giant cell formation by 50%); HIV-2, CEM cell cultures
Protocol: A variety of glycopeptide antibiotic derivatives of vancomycin, eremomycin and teicoplanin including their aglycon derivatives were evaluated for their inhibitory activity against HIV-1 (IIIB) and HIV-2(ROD) in CEM cell cultures.
pEC50: −log10 of the molar value.

Compound: CCCCc1ccc(CN2CCN(Cc3c(O)cc4c(c3O)-c3cc(ccc3O)C3NC(=O)C5NC(=O)C(CC(N)=O)NC(=O)C(NC(=O)C(CC(C)C)NC)C(O)c6ccc(c(Cl)c6)Oc6cc5cc(c6OC5OC(CO)C(O)C(O)C5OC5CC(C)(N)C(O)C(C)O5)Oc5ccc(cc5Cl)C(O)C(NC3=O)C(=O)NC4C(=O)O)CC2)cc1 (centres unmarked)
pEC50: 4.66

Compound: CNCc1c(O)cc2c(c1O)-c1cc(ccc1O)C1NC(=O)C3NC(=O)C4NC(=O)C(Cc5ccc(c(Cl)c5)Oc5cc3cc(c5O)Oc3ccc(cc3Cl)C(O)C(NC1=O)C(=O)NC2C(=O)NC)NC(=O)C(N)c1ccc(O)c(c1)Oc1cc(O)cc4c1 (centres unmarked)
pEC50: 4.76

###

Tested on: CMV
Test details: Anti-CMV assay: virus-induced cytopathicity in HEL cell cultures
Recorded conditions: read-out: EC50 CMV AD-169; CMV strain AD-169, HEL cell cultures
Below, each entry is listed with its recorded EC50.

Compound: CNC(CC(C)C)C(=O)NC1C(=O)NC(CC(N)=O)C(=O)NC2C(=O)NC3C(=O)NC(C(=O)NC(C(=O)O)c4cc(O)cc(O)c4-c4cc3ccc4O)C(O)c3ccc(c(Cl)c3)Oc3cc2cc(c3OC2OC(CO)C(O)C(O)C2OC2CC(C)(NCc3ccc(-c4ccc(Cl)cc4)cc3)C(O)C(C)O2)Oc2ccc(cc2Cl)C1O (stereo not drawn)
EC50: > 5 µM

Compound: CCCCCCCCCC[N+](C)(C)CCCNC(=O)C1NC(=O)C2NC(=O)C(NC(=O)C3NC(=O)C4NC(=O)C(Cc5ccc(c(Cl)c5)Oc5cc3cc(c5O)Oc3ccc(cc3Cl)C2O)NC(=O)C(N)c2ccc(O)c(c2)Oc2cc(O)cc4c2)c2ccc(O)c(c2)-c2c(O)cc(O)cc21 (stereo not drawn)
EC50: ≥ 5 µM

Compound: N[C@H]1C(=O)N[C@@H]2Cc3ccc(c(Cl)c3)Oc3cc4cc(c3O)Oc3ccc(cc3Cl)[C@@H](O)[C@@H]3NC(=O)[C@H](NC(=O)[C@@H]4NC(=O)[C@@H](NC2=O)c2cc(O)cc(c2)Oc2cc1ccc2O)c1ccc(O)c(c1)-c1c(O)cc(O)cc1[C@@H](C(=O)O)NC3=O
EC50: 32 µM

###

System: HEL cells
Recorded conditions: anti-VZV table
Measurement name: MTC (HEL)

Compound: CCCCN(CCCC)c1ccc(CNC(=O)C2NC(=O)C3NC(=O)C(NC(=O)C4NC(=O)C5NC(=O)C(Cc6ccc(c(Cl)c6)Oc6cc4cc(c6O)Oc4ccc(cc4Cl)C3O)NC(=O)C(N)c3ccc(O)c(c3)Oc3cc(O)cc5c3)c3ccc(O)c(c3)-c3c(O)cc(O)cc32)cc1 (centres unmarked) [Compound 137]
Endpoint value: >5 to 20 µM

###

Tested on: HIV-1 (IIIB)
Test details: Inhibition of HIV-1 (IIIB)-induced cytopathicity (giant cell formation) in CEM cells
Type: cell-based
Recorded conditions: read-out: EC50 HIV-1 (concentration required to inhibit HIV-induced giant cell formation by 50%); HIV-1, CEM cell cultures
Measurement name: EC50 (µM)

Compound: CCCCCCCCCC[N+](C)(C)CCCNCc1c(O)cc2c(c1O)-c1cc(ccc1O)C1NC(=O)C3NC(=O)C4NC(=O)C(Cc5ccc(cc5)Oc5cc3cc(c5OC3OC(C(=O)NCCCN(C)C)C(O)C(O)C3N)Oc3ccc(cc3Cl)C(O)C(NC1=O)C(=O)NC2C(=O)NCCCN(C)C)NC(=O)C(NC)c1ccc(O)c(c1)Oc1cc(O)c(Cl)c4c1 (stereo not shown)
Endpoint value: 3.5

Compound: COC(=O)C1NC(=O)C2NC(=O)C(NC(=O)C(N)c3cc(Oc4ccc(CC(NC(=O)OCc5ccccc5)C(=O)O)cc4Cl)c(O)c(c3)Oc3ccc(cc3Cl)C2O)c2ccc(O)c(c2)-c2c1cc(O)c(CNC1C3CC4CC(C3)CC1C4)c2O (stereo not shown)
Endpoint value: 17

Compound: O=C(NC1C(=O)NC2Cc3ccc(c(Cl)c3)Oc3cc4cc(c3O)Oc3ccc(cc3Cl)C(O)C3NC(=O)C(NC(=O)C4NC(=O)C(NC2=O)c2cc(O)cc(c2)Oc2cc1ccc2O)c1ccc(O)c(c1)-c1c(O)cc(O)cc1C(C(=O)O)NC3=O)C(=O)c1c[nH]c2ccccc12 (stereo not shown)
Endpoint value: 10

Compound: N[C@H]1C(=O)N[C@@H]2Cc3ccc(c(Cl)c3)Oc3cc4cc(c3O)Oc3ccc(cc3Cl)[C@@H](O)[C@@H]3NC(=O)[C@H](NC(=O)[C@@H]4NC(=O)[C@@H](NC2=O)c2cc(O)cc(c2)Oc2cc1ccc2O)c1ccc(O)c(c1)-c1c(O)cc(O)cc1[C@@H](C(=O)O)NC3=O
Endpoint value: 17

###

Tested on: HIV-2(ROD)
Test details: Inhibition of HIV-2 (ROD)-induced cytopathicity (giant cell formation) in CEM cells
Format: cell-based
Recorded conditions: read-out: EC50 HIV-2 (concentration required to inhibit HIV-induced giant cell formation by 50%); HIV-2, CEM cell cultures
pEC50: −log10 of the molar value.
Listing of entries alongside the reported pEC50.

Compound: CNC(CC(C)C)C(=O)NC1C(=O)NC(CC(N)=O)C(=O)NC2C(=O)NC3C(=O)NC(C(=O)NC(C(=O)O)c4cc(O)c(CN5CCN(Cc6ccc(-c7ccccc7)cc6)CC5)c(O)c4-c4cc3ccc4O)C(O)c3ccc(cc3)Oc3cc2cc(c3O)Oc2ccc(cc2Cl)C1O (stereo not drawn)
pEC50: 4.92
//
Compound: CCCCCCCCCC[N+]1(C)CCN(Cc2c(O)cc3c(c2O)-c2cc(ccc2O)C2NC(=O)C4NC(=O)C5NC(=O)C(Cc6ccc(c(Cl)c6)Oc6cc4cc(c6O)Oc4ccc(cc4Cl)C(O)C(NC2=O)C(=O)NC3C(=O)NCCCN(C)C)NC(=O)C(N)c2ccc(O)c(c2)Oc2cc(O)cc5c2)CC1 (stereo not drawn)
pEC50: 5.00
//
Compound: CC(NC(=O)C1NC(=O)C2NC(=O)C(NC(=O)C3NC(=O)C4NC(=O)C(Cc5ccc(c(Cl)c5)Oc5cc3cc(c5O)Oc3ccc(cc3Cl)C2O)NC(=O)C(N)c2ccc(O)c(c2)Oc2cc(O)cc4c2)c2ccc(O)c(c2)-c2c(O)cc(O)cc21)C12CC3CC(CC(C3)C1)C2 (stereo not drawn)
pEC50: 5.12
